- system-tested: human factor Xa (Homo sapiens, UniProt P00742)
- Construct: Factor Xa is a serine endopeptidase composed of two disulfide-linked subunits; purchased Enzyme Research Laboratories
- Sequence (P00742 235-488 limits assumed): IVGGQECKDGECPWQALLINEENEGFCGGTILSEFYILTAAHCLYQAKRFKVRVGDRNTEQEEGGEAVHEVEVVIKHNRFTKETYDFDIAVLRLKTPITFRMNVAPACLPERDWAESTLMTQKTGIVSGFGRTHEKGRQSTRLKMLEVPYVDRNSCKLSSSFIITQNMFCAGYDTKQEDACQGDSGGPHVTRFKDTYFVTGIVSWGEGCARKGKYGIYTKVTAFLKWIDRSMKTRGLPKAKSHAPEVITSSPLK
- Sequence (P00742 41-179 partner limits assumed): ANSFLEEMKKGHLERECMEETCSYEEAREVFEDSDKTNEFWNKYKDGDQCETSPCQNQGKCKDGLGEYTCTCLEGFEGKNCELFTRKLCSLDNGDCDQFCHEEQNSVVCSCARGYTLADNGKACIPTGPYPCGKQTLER
- procedure-details: chromogenic peptide substrate assay, inhibition of factor Xa
- Assay type: biochemical
- condition-notes: human factor Xa 3 nM, chromogenic substrate S-2222, pH 7.8, room temperature; apparent Ki from IC50 by Cheng-Prusoff
measurement-label: Ki (µM)
Report the figure in µM without appending any unit label.

Enquiry: Given the entry O=C(Nc1ccc(-n2ccccc2=O)cc1F)[C@H]1C[C@H]1C(=O)Nc1ccc(Cl)cn1 (single isomer, unassigned) [Example 1.4 (1S,2R) enantiomer] , report its measured Ki.
Return: 0.003
